# Tested on: HCT-116
# protocol-description: Cytotoxicity against human HCT116 cells assessed as reduction in cell viability at 50 uM after 72 hrs by MTS assay relative to control
# Format: functional
Activity calls are given as the source filed them. The rule behind the calls is not given here.
reported-property: Activity

CC[C@@H]1CN(C)[C@H]2Cc3c([nH]c4ccccc34)/C(=N/Nc3ccccc3)C[C@H]1[C@@H]2C(=O)OC = >95%
CC[C@H]1CN(C)[C@H]2Cc3c([nH]c4ccccc34)C(=O)C[C@H]1[C@@H]2C(=O)OC = inactive
CC[C@H]1CN(C)[C@H]2Cc3c([nH]c4ccccc34)/C(=N/Nc3ccccc3)C[C@H]1[C@@H]2C(=O)OC = inactive
CC[C@@H]1CN(C)[C@H]2Cc3c([nH]c4ccccc34)C(=O)C[C@@H]1[C@H]2C(=O)OC = inactive

* * *

# Tested on: HepG2
# protocol-description: Cytotoxicity against human HepG2 cells assessed as reduction in cell viability at 50 uM after 72 hrs by MTS assay relative to control
# Type: functional
The source made the active and inactive calls. No cut-off for these calls is given here.
reported-property: Activity

CC[C@@H]1CN(C)[C@H]2Cc3c([nH]c4ccccc34)C(=O)C[C@@H]1[C@H]2C(=O)OC = inactive
CC[C@H]1CN(C)[C@H]2Cc3c([nH]c4ccccc34)/C(=N/Nc3ccccc3)C[C@H]1[C@@H]2C(=O)OC = inactive
CC[C@@H]1CN(C)[C@H]2Cc3c([nH]c4ccccc34)/C(=N/Nc3ccccc3)C[C@H]1[C@@H]2C(=O)OC = >95%
CC[C@H]1CN(C)[C@H]2Cc3c([nH]c4ccccc34)C(=O)C[C@H]1[C@@H]2C(=O)OC = inactive
